# system_name: UniProt:P09917
# protocol_description: Inhibition of 5-lipoxygenase in human neutrophils assessed as residual activity at 30 uM; values are per cent of control
recorded_endpoint: residual activity (%)

These solved cases illustrate the format of a correct answer.
Cc1ccccc1CCn1cc(-c2ccc(-c3ccccc3COc3cccc4ccccc34)cc2)nn1 ... 84.5
c1ccc(CCCn2cc(-c3ccc(-c4cc5ccccc5c5ccccc45)cc3)nn2)cc1 ... 85.7

[1] c1ccc(CCCn2cc(-c3ccc(-c4ccccc4COc4cccc5ccccc45)cc3)nn2)cc1
[2] O=C(OCc1cn(CSc2ccccc2)nn1)c1ccccc1
Looking at 1 and 2 , which one comes out lower in residual activity terms? Choose, then provide that item's label.
2
(2: 14.6%, 1: 79.9%)

====

# system_name: Prostaglandin E synthase / mPGES-1 (Homo sapiens) (UniProt O14684)
# Sequence (O14684 whole entry, looked up): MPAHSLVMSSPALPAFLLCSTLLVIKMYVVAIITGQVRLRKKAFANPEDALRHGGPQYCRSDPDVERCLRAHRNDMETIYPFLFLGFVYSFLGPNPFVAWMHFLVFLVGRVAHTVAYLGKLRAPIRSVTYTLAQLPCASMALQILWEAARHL
# protocol_description: Inhibition of Prostaglandin E2 synthase-1 in IL1-beta stimulated microsomal fraction of human A549 cell assessed as residual activity at 30 uM
# setup_conditions: Microsome
recorded_endpoint: remaining activity (%)

These solved cases illustrate the format of a correct answer.
c1ccc(CCCn2cc(-c3ccc(-c4cc5ccccc5c5ccccc45)cc3)nn2)cc1 ... 78.2
c1ccc(CCCn2cc(-c3ccc(-c4ccc(Oc5ccccc5)cc4)cc3)nn2)cc1 ... 88.7
c1ccc(CCCn2cc(-c3ccc(-c4ccccc4COc4cccc5ccccc45)cc3)nn2)cc1 ... 96.8

[A] O=Cc1ccc(-c2c(Cc3ccccc3)nnn2CSc2ccccc2)cc1
[B] O=C(O)c1ccc(Cn2cc(-c3ccc(-c4ccccc4)cc3)nn2)c([N+](=O)[O-])c1
Looking at A and B , which one comes out lower in remaining activity terms? Choose, then provide that item's label.
B

====

# system_name: Polyunsaturated fatty acid 5-lipoxygenase (Homo sapiens)
# protocol_description: Inhibition of 5-lipoxygenase in human neutrophils
recorded_endpoint: IC50 (nM)

[A] Cc1ccccc1CCn1cc(-c2ccc(-c3ccc(N)cc3)cc2)nn1
[B] CN(C)c1cccc2c(S(=O)(=O)Nc3ccc(-c4ccc(-c5cn(CCCc6ccccc6)nn5)cc4)cc3)cccc12
// max by IC50 over [ A , B ] Choose, then provide that item's label.
B
(B: 2800 nM, A: 1700 nM)

====

# system_name: Polyunsaturated fatty acid 5-lipoxygenase (Homo sapiens) (UniProt P09917)
# Sequence (whole entry): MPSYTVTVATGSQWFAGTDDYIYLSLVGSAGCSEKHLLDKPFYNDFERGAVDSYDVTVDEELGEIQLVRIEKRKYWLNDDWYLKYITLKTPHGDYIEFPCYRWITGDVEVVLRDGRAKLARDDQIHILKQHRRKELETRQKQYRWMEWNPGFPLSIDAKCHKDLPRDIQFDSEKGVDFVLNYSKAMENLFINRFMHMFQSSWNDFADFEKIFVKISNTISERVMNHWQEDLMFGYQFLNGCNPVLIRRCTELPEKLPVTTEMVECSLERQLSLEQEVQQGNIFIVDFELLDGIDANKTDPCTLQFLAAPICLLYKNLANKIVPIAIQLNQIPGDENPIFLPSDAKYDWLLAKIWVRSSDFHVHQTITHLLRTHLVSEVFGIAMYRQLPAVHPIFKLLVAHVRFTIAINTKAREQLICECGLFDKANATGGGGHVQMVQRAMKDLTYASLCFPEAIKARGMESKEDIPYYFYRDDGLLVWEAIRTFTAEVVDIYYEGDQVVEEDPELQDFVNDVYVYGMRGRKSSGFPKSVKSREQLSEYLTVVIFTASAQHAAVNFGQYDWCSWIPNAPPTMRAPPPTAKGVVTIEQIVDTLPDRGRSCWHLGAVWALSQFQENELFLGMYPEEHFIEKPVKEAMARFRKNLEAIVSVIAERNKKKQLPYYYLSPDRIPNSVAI
# protocol_description: Inhibition of human recombinant 5-lipoxygenase expressed in Escherichia coli MV1190 assessed as residual activity at 30 uM by cell free assay
recorded_endpoint: remaining activity (%)

These solved cases illustrate the format of a correct answer.
Oc1cccc(-c2ccc(-c3cn(CSc4ccccc4)nn3)cc2)c1 ... 48.8
c1ccc(CCCn2cc(-c3ccc(-c4ccccc4COc4cccc5ccccc45)cc3)nn2)cc1 ... 77.4
O=Cc1ccc(-c2c(Cc3ccccc3)nnn2CSc2ccccc2)cc1 ... 57.3
Oc1ccc(-c2ccc(-c3cn(CSc4ccccc4)nn3)cc2)cc1 ... 62.3
c1ccc(CCCn2cc(-c3ccc(-c4cc5ccccc5c5ccccc45)cc3)nn2)cc1 ... 82.9
Oc1ccc(-c2ccc(-c3cn(CCCc4ccccc4)nn3)cc2)cc1 ... 58.4
Cc1ccccc1CCn1cc(-c2ccc(-c3ccccc3COc3cc(C(F)(F)F)ccc3Cl)cc2)nn1 ... 82.5
Cc1ccccc1CCn1cc(-c2ccc(-c3ccc(N)cc3)cc2)nn1 ... 60.7

[P] c1ccc(CCCn2cc(-c3ccc(-c4ccc(Oc5ccccc5)cc4)cc3)nn2)cc1
[Q] FC(F)(F)c1ccc(Cl)c(OCc2ccccc2-c2ccc(-c3cn(CCCc4ccccc4)nn3)cc2)c1
[R] CN(C)c1cccc2c(S(=O)(=O)Nc3ccc(-c4ccc(-c5cn(CCCc6ccccc6)nn5)cc4)cc3)cccc12
[S] O=C(O)c1ccc(Cn2cc(-c3ccc(-c4ccccc4)cc3)nn2)c([N+](=O)[O-])c1
// smallest remaining activity at index 0, largest at the end List the labels according to the requested ordering.
R, Q, S, P
(R: 5.1%, Q: 10.1%, S: 20%, P: 59.2%)
